- EXPERIMENTAL_SYSTEM: T1, mouse tissue factor pathway inhibitor (TFPI) (mouse, UniProt O54819 29-289, limits assumed)
- T1 construct: bought; also called mTFPI; murine TFPI
- T1 sequence (looked up): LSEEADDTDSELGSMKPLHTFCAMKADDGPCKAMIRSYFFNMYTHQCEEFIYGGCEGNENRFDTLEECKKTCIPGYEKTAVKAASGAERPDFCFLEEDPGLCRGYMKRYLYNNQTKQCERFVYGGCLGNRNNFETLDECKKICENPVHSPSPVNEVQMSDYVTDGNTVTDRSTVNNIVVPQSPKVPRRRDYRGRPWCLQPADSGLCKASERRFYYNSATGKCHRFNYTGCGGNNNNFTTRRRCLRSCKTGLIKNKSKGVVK
- METHOD_SUMMARY: competitive ELISA
OBSERVATION_TYPE: variant/wild-type (ratio)
# number only, unit ratio dropped from output

Known results for binders:
# BINDER, UNIT_LABEL, variant/wild-type
records = [
    ("2A8 LC_D91L (Fab, V domains shown, also called 2A8-16) VH: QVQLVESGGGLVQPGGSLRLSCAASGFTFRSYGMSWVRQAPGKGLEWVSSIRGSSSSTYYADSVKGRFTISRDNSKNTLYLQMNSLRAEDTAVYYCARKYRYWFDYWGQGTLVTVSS VL: DIELTQPPSVSVAPGQTARISCSGDNLRNYYAHWYQQKPGQAPVVVIYYDNNRPSGIPERFSGSNSGNTATLTISGTQAEDEADYYCQSWLDGVPVFGGGTKLTVLG", "ratio", 1.6),
    ("2A8 HC_S54D (Fab, V domains shown) VH: QVQLVESGGGLVQPGGSLRLSCAASGFTFRSYGMSWVRQAPGKGLEWVSSIRGDSSSTYYADSVKGRFTISRDNSKNTLYLQMNSLRAEDTAVYYCARKYRYWFDYWGQGTLVTVSS VL: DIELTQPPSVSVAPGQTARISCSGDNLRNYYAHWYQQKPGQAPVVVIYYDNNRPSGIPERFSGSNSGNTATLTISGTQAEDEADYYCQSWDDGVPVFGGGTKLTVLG", "ratio", 1.2),
    ("2A8 HC_S31V (Fab, V domains shown, also called 2A8-3) VH: QVQLVESGGGLVQPGGSLRLSCAASGFTFRVYGMSWVRQAPGKGLEWVSSIRGSSSSTYYADSVKGRFTISRDNSKNTLYLQMNSLRAEDTAVYYCARKYRYWFDYWGQGTLVTVSS VL: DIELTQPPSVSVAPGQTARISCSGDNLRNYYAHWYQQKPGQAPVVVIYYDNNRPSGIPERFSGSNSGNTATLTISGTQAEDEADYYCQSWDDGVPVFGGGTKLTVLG", "ratio", 7.4),
    ("2A8 LC_N52G (Fab, V domains shown) VH: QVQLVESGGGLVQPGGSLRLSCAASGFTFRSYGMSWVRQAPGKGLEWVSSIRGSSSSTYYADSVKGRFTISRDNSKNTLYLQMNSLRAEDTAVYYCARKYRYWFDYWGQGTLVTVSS VL: DIELTQPPSVSVAPGQTARISCSGDNLRNYYAHWYQQKPGQAPVVVIYYDNGRPSGIPERFSGSNSGNTATLTISGTQAEDEADYYCQSWDDGVPVFGGGTKLTVLG", "ratio", 1.5),
]

Inquiry: Look up variant/wild-type: 2A8 LC_N51V (Fab, V domains shown, also called 2A8-13) VH: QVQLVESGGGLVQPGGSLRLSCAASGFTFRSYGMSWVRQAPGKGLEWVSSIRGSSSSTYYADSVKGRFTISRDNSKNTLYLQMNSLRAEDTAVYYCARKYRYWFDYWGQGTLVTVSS VL: DIELTQPPSVSVAPGQTARISCSGDNLRNYYAHWYQQKPGQAPVVVIYYDVNRPSGIPERFSGSNSGNTATLTISGTQAEDEADYYCQSWDDGVPVFGGGTKLTVLG
Reply text: 2

Where do the numbers come from? From patent USRE47150.
